target: VOP 35A-10 (VZ+892) (synthetic); assay: EMSA; Table 6 gives 0.24 nM for same helices (VZ+892); conditions: tags: MBP fusion (pMal-c2), SP1 backbone
Sequence (chain, as listed by the source): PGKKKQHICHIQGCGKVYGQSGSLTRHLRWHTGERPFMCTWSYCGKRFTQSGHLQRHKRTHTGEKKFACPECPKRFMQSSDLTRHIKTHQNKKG
pKd: −log10 of the molar value.
property-name: pKd

Please look up its pKd: VOP 35A-10 target (dsDNA) DNA 1: GCTGGAGCA DNA 2: TGCTCCAGC
> 10.70

Where do the numbers come from? From patent US20030021776.
